Origin of the recorded values: PubChem BioAssay AID1626

# inhibition listing for each entry below
assay_protocol: M. tuberculosis H37Rv growth inhibitors, H37Rv strain (AID 1626);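 also: bacteria incubated seven days before Alamar blue readout; 0% = bacteria only wells and 100% = bacteria with antibiotic wells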
condition_summary: hits give high values, concentration not given here
Out of some 220,000 compounds screened, about 2,000 (0.91%) were called active. Inconclusive results (about 2%) are left out. Only a sample is shown. Entries with a potency or affinity are not part of this list.

INSERT INTO results (compound, measurement_type, value) VALUES
  ('CC1(C)CC(=O)C2=C(C1)NC1=C(C(=O)c3ccccc31)C2c1ccccc1 (stereo not given)', 'inhibition', '14.8% (inactive)'),
  ('COc1c(F)c(F)c(C(=O)O)c(Nc2cc(C)cc(C)c2)c1F', 'inhibition', '-9.39% (inactive)'),
  ('COc1ccc(-n2c(SCC(=O)O)nc3sc4c(c3c2=O)CCC4)cc1', 'inhibition', '-7.18% (inactive)');

Dear colleague, please send me the reported inhibition for O=S(=O)(Nc1ccccc1)c1ccc(-c2csnn2)cc1 when you can.
8.85% (inactive)

Dear colleague, please send me the reported inhibition for CC1(C)CC(=O)C2=C(C1)NC1=C(C(=O)c3ccccc31)C2c1cccnc1 (stereo not given) when you can.
11.2% (inactive)
